Hey, just so you know, these numbers are from patent US20200079855A1.

Target: human αvβ8 integrin on U251 cells (human, UniProt P06756 31-1048)
Test: flow cytometry, Fab binding to fixed U251 cells (MFI APC-A); EC50 unit inferred, axis Log10 [Ab] (nM)
Reported EC50 values are given for each entry in this list.
Quick reminder: number only, in nM, skip the unit.

Look at this binder and give its reported EC50. ADWA11 2.1 Fab (Fab, V domains shown) VH: EVQLVESGGGLVQPGGSLRLSCAASGFNIKDYYMNWVRQAPGKGLEWVGWIDPDQGNTIYEPKFQGRFTISADTSKNSAYLQMNSLRAEDTAVYYCARRLLMDYWGQGTLVTVSS VL: DIQMTQSPSSLSASVGDRVTITCRSTKSLSHFNGNTYLFWYQQKPGKAPKRLIYYMSNLASGVPSRFSGSGSGTDFTLTISSLQPEDFATYYCQQSLEYPFTFGGGTKVEIK
0.218

And what about the binder ADWA11 2.2 Fab (Fab, V domains shown) VH: EVQLVESGGGLVQPGGSLRLSCAASGFNIKDYYMNWVRQAPGKGLEWVGWIDPDQGNTIYEPKFQGRFTISADTSKNSAYLQMNSLRAEDTAVYYCARRLLMDYWGQGTLVTVSS VL: DIQMTQSPSSLSASVGDRVTITCRSTKSLSHFNGNTYLFWYQQKPGKAPKRLIYYMSNLASGVPSRFSGSGSGTDFTLTISSLQPEDFATYYCMQSYEYPFTFGGGTKVEIK ?
0.225

And what about the binder ADWA11 2.4 Fab (Fab, V domains shown, Fab; also called ADWA11 5-2 2.4; ADWA11_5-2 2.4 Fab) VH: EVQLVESGGGLVQPGGSLRLSCAASGFNIKDYYMNWVRQAPGKGLEWVGWIDPDQGNTIYEPKFQGRFTISADTSKNSAYLQMNSLRAEDTAVYYCARRLLMDYWGQGTLVTVSS VL: DIQMTQSPSSLSASVGDRVTITCRSTKSLSHFNGNTYLFWYQQKPGKAPKRLIYYMSSLASGVPSRFSGSGSGTDFTLTISSLQPEDFATYYCQQSLEYPFTFGGGTKVEIK ?
0.205

And what about the binder ADWA11 2.3 (F64V) Fab (Fab, V domains shown) VH: EVQLVESGGGLVQPGGSLRLSCAASGFNIKDYYMNWVRQAPGKGLEWVGWIDPDQGNTIYEPKVQGRFTISADTSKNSAYLQMNSLRAEDTAVYYCARRLLMDYWGQGTLVTVSS VL: DIQMTQSPSSLSASVGDRVTITCRSTKSLSHFNGNTYLFWYQQKPGKAPKRLIYYASNLASGVPSRFSGSGSGTDFTLTISSLQPEDFATYYCQQSLEYPFTFGGGTKVEIK ?
0.28

And what about the binder ADWA11 VH05-2/VK01 Fab (parental) (Fab, V domains shown) VH: EVQLVESGGGLVQPGGSLRLSCAASGFNIKDYYMNWVRQAPGKGLEWVGWIDPDQGNTIYEPKFQGRFTISADTSKNSAYLQMNSLRAEDTAVYYCARRLLMDYWGQGTLVTVSS VL: DIQMTQSPSSLSASVGDRVTITCRSTKSLLHFNGNTYLFWYQQKPGKAPKRLIYYMSNLASGVPSRFSGSGSGTDFTLTISSLQPEDFATYYCMQSLEYPFTFGQGTKVEIK ?
0.198
